Values compiled from patent US20210388087A1.

Molecular target: T1, Human CD137 ECD (human)
T1 construct: entry includes C-terminal His-tag and biotin acceptor peptide; also called human CD137 extracellular domain; 4-1BB
T1 sequence (chain, as listed by the source limits assumed): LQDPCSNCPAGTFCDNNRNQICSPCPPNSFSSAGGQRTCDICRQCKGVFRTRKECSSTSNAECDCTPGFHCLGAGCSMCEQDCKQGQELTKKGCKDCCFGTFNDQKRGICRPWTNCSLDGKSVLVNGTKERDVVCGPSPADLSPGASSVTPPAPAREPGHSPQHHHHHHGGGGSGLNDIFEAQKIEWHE
Experiment: Biacore SPR, vs parent H183/L072
outcome-measure: fold change of affinity (fold)
Value expressed in fold; do not type the unit.

Answered cases to consult:
>  <binder>
H183/L072 VL N30M (antibody, name in Kabat numbering, V domains shown, Dual-Ig) VH: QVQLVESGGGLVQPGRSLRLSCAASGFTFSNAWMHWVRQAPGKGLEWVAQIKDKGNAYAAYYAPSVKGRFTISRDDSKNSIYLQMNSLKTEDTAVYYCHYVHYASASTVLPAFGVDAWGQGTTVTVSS VL: DIVMTQSPLSLPVTPGEPASISCQASQELVHMNRMTYLHWYQQKPGQAPRLLIYKVSNRFPGVPDRFSGSGSGTDFTLKISRVEAEDVGVYYCAQGTSVPFTFGQGTKLEIK

>  <unit-name>
fold

>  <fold change of affinity>
1.8

$$$$
>  <binder>
H183/L072 VL V94M (antibody, name in Kabat numbering, V domains shown, Dual-Ig) VH: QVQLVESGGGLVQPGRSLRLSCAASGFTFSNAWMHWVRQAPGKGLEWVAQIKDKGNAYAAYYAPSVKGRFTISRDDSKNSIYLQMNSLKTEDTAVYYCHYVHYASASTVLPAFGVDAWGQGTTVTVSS VL: DIVMTQSPLSLPVTPGEPASISCQASQELVHMNRNTYLHWYQQKPGQAPRLLIYKVSNRFPGVPDRFSGSGSGTDFTLKISRVEAEDVGVYYCAQGTSMPFTFGQGTKLEIK

>  <unit-name>
fold

>  <fold change of affinity>
0.7

$$$$
>  <binder>
H183/L072 VL T31K (antibody, name in Kabat numbering, V domains shown, Dual-Ig) VH: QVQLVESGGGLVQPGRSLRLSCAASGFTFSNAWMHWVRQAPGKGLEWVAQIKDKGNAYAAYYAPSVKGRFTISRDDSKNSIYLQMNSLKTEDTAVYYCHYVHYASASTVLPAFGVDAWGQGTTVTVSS VL: DIVMTQSPLSLPVTPGEPASISCQASQELVHMNRNKYLHWYQQKPGQAPRLLIYKVSNRFPGVPDRFSGSGSGTDFTLKISRVEAEDVGVYYCAQGTSVPFTFGQGTKLEIK

>  <unit-name>
fold

>  <fold change of affinity>
0.4

$$$$
>  <binder>
H183/L072 VL V51W (antibody, name in Kabat numbering, V domains shown, Dual-Ig) VH: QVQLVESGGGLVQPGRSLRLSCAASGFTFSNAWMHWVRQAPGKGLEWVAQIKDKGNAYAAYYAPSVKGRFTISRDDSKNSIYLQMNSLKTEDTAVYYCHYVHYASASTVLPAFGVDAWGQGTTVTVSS VL: DIVMTQSPLSLPVTPGEPASISCQASQELVHMNRNTYLHWYQQKPGQAPRLLIYKWSNRFPGVPDRFSGSGSGTDFTLKISRVEAEDVGVYYCAQGTSVPFTFGQGTKLEIK

>  <unit-name>
fold

>  <fold change of affinity>
0.1

$$$$
>  <binder>
H183/L072 VL T92V (antibody, name in Kabat numbering, V domains shown, Dual-Ig) VH: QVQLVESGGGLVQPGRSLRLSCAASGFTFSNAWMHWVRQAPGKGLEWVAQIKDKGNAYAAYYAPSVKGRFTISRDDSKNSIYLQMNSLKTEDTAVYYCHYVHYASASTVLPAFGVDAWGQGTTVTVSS VL: DIVMTQSPLSLPVTPGEPASISCQASQELVHMNRNTYLHWYQQKPGQAPRLLIYKVSNRFPGVPDRFSGSGSGTDFTLKISRVEAEDVGVYYCAQGVSVPFTFGQGTKLEIK

>  <unit-name>
fold

>  <fold change of affinity>
0.3

$$$$

Data request: Report fold change of affinity for H183/L072 VL A89R (antibody, name in Kabat numbering, V domains shown, Dual-Ig) VH: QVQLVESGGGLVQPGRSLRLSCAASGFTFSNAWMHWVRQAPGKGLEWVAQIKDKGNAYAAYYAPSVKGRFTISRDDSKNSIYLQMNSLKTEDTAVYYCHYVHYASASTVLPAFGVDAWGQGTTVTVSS VL: DIVMTQSPLSLPVTPGEPASISCQASQELVHMNRNTYLHWYQQKPGQAPRLLIYKVSNRFPGVPDRFSGSGSGTDFTLKISRVEAEDVGVYYCRQGTSVPFTFGQGTKLEIK please.
Data returned: 0

Data request: Report fold change of affinity for H183/L072 VL R29M (antibody, name in Kabat numbering, V domains shown, Dual-Ig) VH: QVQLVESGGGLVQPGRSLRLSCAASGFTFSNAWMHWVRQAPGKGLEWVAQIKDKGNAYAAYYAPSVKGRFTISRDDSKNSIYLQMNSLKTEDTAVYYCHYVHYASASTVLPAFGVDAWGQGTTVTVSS VL: DIVMTQSPLSLPVTPGEPASISCQASQELVHMNMNTYLHWYQQKPGQAPRLLIYKVSNRFPGVPDRFSGSGSGTDFTLKISRVEAEDVGVYYCAQGTSVPFTFGQGTKLEIK please.
Data returned: 0.9

Data request: Report fold change of affinity for H183/L072 VL N30T (antibody, name in Kabat numbering, V domains shown, Dual-Ig) VH: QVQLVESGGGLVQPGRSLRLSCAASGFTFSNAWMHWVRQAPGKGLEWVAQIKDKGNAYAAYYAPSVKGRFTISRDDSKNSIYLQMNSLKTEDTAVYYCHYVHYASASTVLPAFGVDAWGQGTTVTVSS VL: DIVMTQSPLSLPVTPGEPASISCQASQELVHMNRTTYLHWYQQKPGQAPRLLIYKVSNRFPGVPDRFSGSGSGTDFTLKISRVEAEDVGVYYCAQGTSVPFTFGQGTKLEIK please.
Data returned: 0.3

Data request: Report fold change of affinity for H183/L072 VL P95L (antibody, name in Kabat numbering, V domains shown, Dual-Ig) VH: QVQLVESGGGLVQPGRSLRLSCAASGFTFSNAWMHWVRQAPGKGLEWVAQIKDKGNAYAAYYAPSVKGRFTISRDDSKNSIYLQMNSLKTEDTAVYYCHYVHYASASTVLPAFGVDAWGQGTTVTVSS VL: DIVMTQSPLSLPVTPGEPASISCQASQELVHMNRNTYLHWYQQKPGQAPRLLIYKVSNRFPGVPDRFSGSGSGTDFTLKISRVEAEDVGVYYCAQGTSVLFTFGQGTKLEIK please.
Data returned: 0

Data request: Report fold change of affinity for H183/L072 VL F96P (antibody, name in Kabat numbering, V domains shown, Dual-Ig) VH: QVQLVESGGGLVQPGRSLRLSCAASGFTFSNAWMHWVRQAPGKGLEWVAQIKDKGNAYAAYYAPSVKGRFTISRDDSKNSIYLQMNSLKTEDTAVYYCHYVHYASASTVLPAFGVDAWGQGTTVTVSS VL: DIVMTQSPLSLPVTPGEPASISCQASQELVHMNRNTYLHWYQQKPGQAPRLLIYKVSNRFPGVPDRFSGSGSGTDFTLKISRVEAEDVGVYYCAQGTSVPPTFGQGTKLEIK please.
Data returned: 0
